System: SARS-CoV-2 replicon
Format: cell-based
Details: read-out: SARS-CoV-2 Replicon (Huh-7cell) EC50
pEC50: −log10 of the molar value.
Below, each entry is listed alongside its reported pEC50.

COMPOUND	ASSAYED SYSTEM	pEC50
CC(=O)O[C@H]1[C@@H](OC(C)=O)[C@](C#N)(c2ccc3c(N)ncnn23)O[C@@H]1COP(=O)(OCOC(=O)OC(C)C)OCOC(=O)OC(C)C	SARS-CoV-2 replicon	> 8.30
CCC(CC)COC(=O)[C@H](Cc1ccccc1)N[P@](=O)(OCOC(=O)OC(C)C)OC[C@H]1O[C@@](C#N)(c2ccc3c(N)ncnn23)[C@H](OC(=O)C(C)C)[C@@H]1OC(=O)C(C)C [Compound 31a]	SARS-CoV-2 replicon	7.30 to 8.00
CCCCCOC(=O)C[C@H](N[P@@](=O)(OC[C@H]1O[C@@](C#N)(c2ccc3c(N)ncnn23)[C@H](OC(=O)C(C)C)[C@@H]1OC(=O)C(C)C)Oc1ccccc1)C(=O)OCCCCC [Compound 38a]	SARS-CoV-2 replicon	6.30 to 7.30
CCC(=O)O[C@H]1[C@@H](OC(=O)CC)[C@](C#N)(c2ccc3c(N)ncnn23)O[C@@H]1CO[P@](=O)(N[C@@H](C)C(=O)OCC(CC)CC)OCOC(=O)C(C)(C)C [Compound 10a]	SARS-CoV-2 replicon	7.30 to 8.00
CC(C)OC(=O)OCO[P@](=O)(N[C@@H](C)C(=O)OC1CCC1)OC[C@H]1O[C@@](C#N)(c2ccc3c(N)ncnn23)[C@H](OC(=O)C(C)C)[C@@H]1OC(=O)C(C)C [Compound 13b]	SARS-CoV-2 replicon	> 8.30
CCC(CC)COC(=O)[C@H](Cc1ccccc1)N[P@@](=O)(OCOC(=O)OC(C)C)OC[C@H]1O[C@@](C#N)(c2ccc3c(N)ncnn23)[C@H](OC(=O)C(C)C)[C@@H]1OC(=O)C(C)C [Compound 31b]	SARS-CoV-2 replicon	7.30 to 8.00
CCC(CC)COC(=O)[C@H](C)N[P@](=O)(OCOC(=O)C(C)(C)C)OC[C@H]1O[C@@](C#N)(c2ccc3c(N)ncnn23)[C@H](OC(C)=O)[C@@H]1OC(C)=O	SARS-CoV-2 replicon	8.00 to 8.30
CCC(CC)COC(=O)C1(N[P@](=O)(OC[C@H]2O[C@@](C#N)(c3ccc4c(N)ncnn34)[C@H](OC(=O)C(C)C)[C@@H]2OC(=O)C(C)C)Oc2ccccc2)CCC1 [Compound 40b]	SARS-CoV-2 replicon	6.30 to 7.30
CCC(=O)O[C@H]1[C@@H](OC(=O)CC)[C@](C#N)(c2ccc3c(N)ncnn23)O[C@@H]1CO[P@@](=O)(N[C@@H](C)C(=O)OC(C)C)OCOC(=O)OC(C)C	SARS-CoV-2 replicon	≥ 8.30
CCC(CC)COC(=O)[C@H](C)N[P@@](=O)(OCc1ccccc1C)OC[C@H]1O[C@@](C#N)(c2ccc3c(N)ncnn23)[C@H](OC(=O)C(C)C)[C@@H]1OC(=O)C(C)C [Compound 16b]	SARS-CoV-2 replicon	6.30 to 7.30
